Cited source for all entries: PubChem BioAssay AID2060886

system: 653999-131-R-J2-PDC complex spheroids, growth inhibition; experiment: Anticancer human tumor 653999-131-R-J2-PDC patient-derived lung adenocarcinoma cell line growth inhibition [RAS]; details: second compound 0.000949 µM; first compound 10 µM; stronger effect = lower value
Recorded viability, T/C by entry

{"compound": "CC1(O)CCCC1n1c(=O)c(C(F)F)cc2cnc(NC3CCN(S(C)(=O)=O)CC3)nc21 (centres undefined) + CCn1c(-c2cc(N3CCN(C)CC3)cnc2C(C)OC)c2c3cc(ccc31)-c1csc(n1)CC(NC(=O)C1CC1C)C(=O)N1CCCC(N1)C(=O)OCC(C)(C)C2", "value units": "%", "viability, T/C": 37.7}
{"compound": "C[C@@H](NC(=O)c1ncnc(N)c1Cl)c1ncc(C(=O)Nc2cc(C(F)(F)F)c(Cl)cn2)s1 + CCn1c(-c2cccnc2C(C)OC)c2c3cc(ccc31)N1CCOC(CC(NC(=O)C(C(C)C)N(C)C(=O)C3(F)CCN(C(=O)C#CC(C)(C)N(C)C)CC3)C(=O)N3CCCC(N3)C(=O)OCC(C)(C)C2)C1", "value units": "%", "viability, T/C": 83.6}
{"compound": "CC(Nc1ccc2c(c1)OCCn1cc(N3C(=O)OCC3C(F)F)nc1-2)C(N)=O (centres undefined) + CCn1c(-c2cccnc2C(C)OC)c2c3cc(ccc31)N1CCOC(CC(NC(=O)C(C(C)C)N(C)C(=O)C3(F)CCN(C(=O)C#CC(C)(C)N(C)C)CC3)C(=O)N3CCCC(N3)C(=O)OCC(C)(C)C2)C1", "value units": "%", "viability, T/C": 20.1}
{"compound": "NC1c2ccccc2OC12CCN(c1cnc3c(N4CCCc5ncccc54)n[nH]c3n1)CC2 (centres undefined) + CCn1c(-c2cccnc2C(C)OC)c2c3cc(ccc31)N1CCOC(CC(NC(=O)C(C(C)C)N(C)C(=O)C3(F)CCN(C(=O)C#CC(C)(C)N(C)C)CC3)C(=O)N3CCCC(N3)C(=O)OCC(C)(C)C2)C1", "value units": "%", "viability, T/C": 85.5}

---

Recorded viability, T/C by entry
system: 653999-131-R-J2-PDC complex spheroids, growth inhibition; assay: Anticancer human tumor 653999-131-R-J2-PDC cell line growth inhibition [RAS]; conditions: second compound 0.00316 µM; first compound 3.16 µM; stronger effect = lower value;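 note: spheroids exposed to the agents for seven days before the readout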

{"compound": "CC(Nc1ccc2c(c1)OCCn1cc(N3C(=O)OCC3C(F)F)nc1-2)C(N)=O (stereo not drawn) + C=CC(=O)N1CCN(c2nc(OCC3CCCN3C)nc3c(F)c(-c4nc(N)cc(C)c4C(F)(F)F)c(Cl)cc23)C(C)C1", "experimental target": "653999-131-R-J2-PDC complex spheroids, growth inhibition", "viability, T/C [%]": 36.5}
{"compound": "CC(=O)OC12COC1CC(O)C1(C)C(=O)C(O)C3=C(C)C(OC(=O)C(O)C(NC(=O)OC(C)(C)C)c4ccccc4)CC(O)(C(OC(=O)c4ccccc4)C21)C3(C)C (stereo not drawn) + C=CC(=O)N1CCN(c2nc(OCC3CCCN3C)nc3c(F)c(-c4nc(N)cc(C)c4C(F)(F)F)c(Cl)cc23)C(C)C1", "experimental target": "653999-131-R-J2-PDC complex spheroids, growth inhibition", "viability, T/C [%]": 61.7}
{"compound": "CC(C)NCC(C(=O)N1CCN(c2ncnc3c2C(C)CC3O)CC1)c1ccc(Cl)cc1 (stereo not drawn) + C=CC(=O)N1CCN(c2nc(OCC3CCCN3C)nc3c(F)c(-c4nc(N)cc(C)c4C(F)(F)F)c(Cl)cc23)C(C)C1", "experimental target": "653999-131-R-J2-PDC complex spheroids, growth inhibition", "viability, T/C [%]": 41.7}

---

tested on: 653999-131-R-J2-PDC complex spheroids, growth inhibition; experiment: Anticancer human tumor 653999-131-R-J2-PDC cell line growth inhibition [RAS]; details: second compound 3.16 µM; first compound 0.01 µM; stronger effect = lower value;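 note: spheroids exposed to the agents for seven days before the readout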

{"molecule": "O=C(c1ccc(F)c(F)c1Nc1ccc(I)cc1F)N1CC(O)([C@@H]2CCCCN2)C1 + C#Cc1c(F)ccc2cc(O)cc(-c3ncc4c(N5CC6CCC(C5)N6)nc(OCC56CCCN5CC(F)C6)nc4c3F)c12", "viability, T/C": "31.5%"}
{"molecule": "CCN1CCN(Cc2ccc(Nc3ncc(F)c(-c4cc(F)c5nc(C)n(C(C)C)c5c4)n3)nc2)CC1 + C#Cc1c(F)ccc2cc(O)cc(-c3ncc4c(N5CC6CCC(C5)N6)nc(OCC56CCCN5CC(F)C6)nc4c3F)c12", "viability, T/C": "31.7%"}
{"molecule": "C=CC(=O)N1CCN(c2nc(OCC3CCCN3C)nc3c(F)c(-c4nc(N)cc(C)c4C(F)(F)F)c(Cl)cc23)C(C)C1 (centres undefined) + C#Cc1c(F)ccc2cc(O)cc(-c3ncc4c(N5CC6CCC(C5)N6)nc(OCC56CCCN5CC(F)C6)nc4c3F)c12", "viability, T/C": "55.2%"}
{"molecule": "C=CC(=O)Nc1cc(Nc2nccc(-c3cn(C)c4ccccc34)n2)c(OC)cc1N(C)CCN(C)C + C#Cc1c(F)ccc2cc(O)cc(-c3ncc4c(N5CC6CCC(C5)N6)nc(OCC56CCCN5CC(F)C6)nc4c3F)c12", "viability, T/C": "35.2%"}

---

Recorded IC50 by entry
Test system: 653999-131-R-J2-PDC complex spheroids, growth inhibition
Assay: Anticancer human tumor 653999-131-R-J2-PDC cell line growth inhibition [RAS];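 note: spheroids exposed to the agents for seven days before the readout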
Settings: curve of first compound; second compound 0.1 µM
Text: RAS pathway inhibitors in Combinations in Complex Spheroids A high-throughput screen of multi-cell type tumor spheroids was designed to identify active combinations of RAS pathway inhibitors and targeted small molecules. Complex spheroids include a stromal component modeled by human endothelial cells (HUVEC) and fibroblasts modeled by human mesenchymal stem cells (MSCs). […] Compounds. […] If the clinical Cmax for an agent had not been determined, the highest concentration tested was 10 microM. […]

{"compound": "CCN1CCN(Cc2ccc(Nc3ncc(F)c(-c4cc(F)c5nc(C)n(C(C)C)c5c4)n3)nc2)CC1 + C=CC(=O)N1CCN(c2nc(OCC3CCCN3C)nc3c(F)c(-c4nc(N)cc(C)c4C(F)(F)F)c(Cl)cc23)C(C)C1", "IC50": "> 1000 nM"}
{"compound": "CC(=O)OC12COC1CC(O)C1(C)C(=O)C(O)C3=C(C)C(OC(=O)C(O)C(NC(=O)OC(C)(C)C)c4ccccc4)CC(O)(C(OC(=O)c4ccccc4)C21)C3(C)C (centres undefined) + C=CC(=O)N1CCN(c2nc(OCC3CCCN3C)nc3c(F)c(-c4nc(N)cc(C)c4C(F)(F)F)c(Cl)cc23)C(C)C1", "IC50": "> 10000 nM"}
{"compound": "CC1(C)CCC(Nc2ncc(C(F)(F)F)c(-c3c[nH]c4c(P(C)(C)=O)c(C#N)ccc34)n2)CN1 (centres undefined) + C=CC(=O)N1CCN(c2nc(OCC3CCCN3C)nc3c(F)c(-c4nc(N)cc(C)c4C(F)(F)F)c(Cl)cc23)C(C)C1", "IC50": "> 300 nM"}
{"compound": "C=CC(=O)N1CCN(c2nc(OCC3CCCN3C)nc3c(F)c(-c4nc(N)cc(C)c4C(F)(F)F)c(Cl)cc23)C(C)C1 (centres undefined) + C#Cc1c(F)ccc2cc(O)cc(-c3ncc4c(N5CC6CCC(C5)N6)nc(OCC56CCCN5CC(F)C6)nc4c3F)c12", "IC50": "> 1000 nM"}
{"compound": "NC1c2ccccc2OC12CCN(c1cnc3c(N4CCCc5ncccc54)n[nH]c3n1)CC2 (centres undefined) + C=CC(=O)N1CCN(c2nc(OCC3CCCN3C)nc3c(F)c(-c4nc(N)cc(C)c4C(F)(F)F)c(Cl)cc23)C(C)C1", "IC50": "> 10000 nM"}
{"compound": "CC1(C)CCC(Nc2ncc(C(F)(F)F)c(-c3c[nH]c4c(P(C)(C)=O)c(C#N)ccc34)n2)CN1 (centres undefined) + C#Cc1c(F)ccc2cc(O)cc(-c3ncc4c(N5CC6CCC(C5)N6)nc(OCC56CCCN5CC(F)C6)nc4c3F)c12", "IC50": "> 300 nM"}
{"compound": "CCN1CCN(Cc2ccc(Nc3ncc(F)c(-c4cc(F)c5nc(C)n(C(C)C)c5c4)n3)nc2)CC1 + C#Cc1c(F)ccc2cc(O)cc(-c3ncc4c(N5CC6CCC(C5)N6)nc(OCC56CCCN5CC(F)C6)nc4c3F)c12", "IC50": "> 1000 nM"}
{"compound": "C=CC(=O)Nc1cc(Nc2nccc(-c3cn(C)c4ccccc34)n2)c(OC)cc1N(C)CCN(C)C + C=CC(=O)N1CCN(c2nc(OCC3CCCN3C)nc3c(F)c(-c4nc(N)cc(C)c4C(F)(F)F)c(Cl)cc23)C(C)C1", "IC50": "> 1000 nM"}
{"compound": "C[C@@H](NC(=O)c1ncnc(N)c1Cl)c1ncc(C(=O)Nc2cc(C(F)(F)F)c(Cl)cn2)s1 + C#Cc1c(F)ccc2cc(O)cc(-c3ncc4c(N5CC6CCC(C5)N6)nc(OCC56CCCN5CC(F)C6)nc4c3F)c12", "IC50": "> 10000 nM"}
